Where these numbers come from: ChEMBL document CHEMBL3808305

Each entry below carries its recorded pEC50.
- Test system: Hepatitis C virus
- protocol.summary: Antiviral activity against HCV genotype 1a expressing NS5A Y93H mutant assessed as decrease in HCV replicon RNA replication after 3 days by taqman assay based cell based replicon method
- Assay type: functional, organism-based, Hepacivirus hominis
- run.conditions: subtype 1a, 72 h
pEC50: −log10 of the molar value.

>  <compound.string>
COC(=O)N[C@H](C(=O)N1CCC[C@H]1c1ncc(-c2ccc3c(C)c4cc(-c5cnc([C@@H]6CCCN6C(=O)[C@@H](NC(=O)OC)C(C)C)[nH]5)ccc4cc3c2)[nH]1)C(C)C

>  <pEC50>
7.38

$$$$
>  <compound.string>
COC(=O)N[C@H](C(=O)N1CCC[C@H]1c1ncc(-c2ccc3cc4cc(-c5cnc([C@@H]6CCCN6C(=O)[C@@H](NC(=O)OC)C(C)C)[nH]5)ccc4cc3c2)[nH]1)C(C)C

>  <pEC50>
7.06

$$$$
>  <compound.string>
COC(=O)N[C@H](C(=O)N1CCC[C@H]1c1ncc(-c2ccc3c(c2)Oc2ccc(-c4cnc([C@@H]5CCCN5C(=O)[C@@H](NC(=O)OC)C(C)C)[nH]4)cc2N3C)[nH]1)C(C)C

>  <pEC50>
7.15

$$$$
>  <compound.string>
COC(=O)N[C@H](C(=O)N1CCC[C@H]1c1ncc(-c2ccc3c(Cl)c4cc(-c5cnc([C@@H]6CCCN6C(=O)[C@@H](NC(=O)OC)C(C)C)[nH]5)ccc4cc3c2)[nH]1)C(C)C

>  <pEC50>
7.18

$$$$
>  <compound.string>
C/C=C1/c2ccc(-c3cnc([C@@H]4CCCN4C(=O)[C@@H](NC(=O)OC)C(C)C)[nH]3)cc2Oc2ccc(-c3cnc([C@@H]4CCCN4C(=O)[C@@H](NC(=O)OC)C(C)C)[nH]3)cc21

>  <pEC50>
8.05

$$$$
